Tested on: P. aeruginosa KCTC2513
Assay type: cell-based, Pseudomonas aeruginosa
Conditions: KCTC2513, 16 h
Where no end group is shown, it is not given here.
Field: MIC. Provide a value for each of the sequences that follow.
In your response, the unit should come after the numeric value.

Note down MIC recorded for AFHHIFRGIVHVGKTIHRLVTG [Pis-F1A] 8.0 µM

Note down MIC recorded for FFHHIKRGIVHVGKTIHRLVTG [Pis-F6K] 8.0 µM

Note down MIC recorded for KFHHIFRGIVHVGKTIHRLVTG [Pis-F1K] 4.0 µM

Note down MIC recorded for FFHHIKRGIKHVGKTIHRLVTG [Pis-F6K/V10K] 8.0 µM

Note down MIC recorded for FKHHIFRGIKHVGKTIHRLVTG [Pis-F2K/V10K] 8.0 µM

Note down MIC recorded for FAHHIFRGIVHVGKTIHRLVTG [Pis-F2A] 8.0 µM

Note down MIC recorded for FFHHIFRGIKHVGKTIHRLVTG [Pis-V10K] 2.0 µM

Note down MIC recorded for KFHHIFRGIKHVGKTIHRLVTG [Pis-F1K/V10K] 2.0 µM

Note down MIC recorded for FFHHIARGIVHVGKTIHRLVTG [Pis-F6A] 16 µM

Note down MIC recorded for FKHHIFRGIVHVGKTIHRLVTG [Pis-F2K] 8.0 µM

###

Field: MIC. Provide a value for each of the sequences that follow.
Test system: MRSA CCARM 3114
Type: cell-based, Methicillin-resistant S. aureus
Settings: CCARM 3114, 16 h
Where no end group is shown, it is not given here.
Give your result in µM as a bare value.

Note down MIC recorded for FFHHIKRGIKHVGKTIHRLVTG [Pis-F6K/V10K] 8.0

Note down MIC recorded for FFHHIARGIVHVGKTIHRLVTG [Pis-F6A] 16

Note down MIC recorded for FFHHIKRGIVHVGKTIHRLVTG [Pis-F6K] 16

Note down MIC recorded for FAHHIFRGIVHVGKTIHRLVTG [Pis-F2A] 16

Note down MIC recorded for FKHHIFRGIVHVGKTIHRLVTG [Pis-F2K] 16

Note down MIC recorded for AFHHIFRGIVHVGKTIHRLVTG [Pis-F1A] 8.0

Note down MIC recorded for FFHHIFRGIKHVGKTIHRLVTG [Pis-V10K] 4.0

Note down MIC recorded for KFHHIFRGIVHVGKTIHRLVTG [Pis-F1K] 8.0

Note down MIC recorded for KFHHIFRGIKHVGKTIHRLVTG [Pis-F1K/V10K] 8.0

Note down MIC recorded for FKHHIFRGIKHVGKTIHRLVTG [Pis-F2K/V10K] 8.0

###

Field: MIC. Provide a value for each of the sequences that follow.
Tested on: MRSA CCARM3089
Assay type: cell-based, Methicillin-resistant S. aureus
Conditions: CCARM3089, 16 h
Where no end group is shown, it is not given here.
Give your result in µM as a bare value.

Note down MIC recorded for FFHHIFRGIKHVGKTIHRLVTG [Pis-V10K] 8.0

Note down MIC recorded for KFHHIFRGIVHVGKTIHRLVTG [Pis-F1K] 8.0

Note down MIC recorded for KFHHIFRGIKHVGKTIHRLVTG [Pis-F1K/V10K] 4.0

Note down MIC recorded for FFHHIKRGIKHVGKTIHRLVTG [Pis-F6K/V10K] 8.0

Note down MIC recorded for FKHHIFRGIKHVGKTIHRLVTG [Pis-F2K/V10K] 8.0

Note down MIC recorded for FKHHIFRGIVHVGKTIHRLVTG [Pis-F2K] 16

Note down MIC recorded for FFHHIARGIVHVGKTIHRLVTG [Pis-F6A] 32

Note down MIC recorded for AFHHIFRGIVHVGKTIHRLVTG [Pis-F1A] 8.0

Note down MIC recorded for FAHHIFRGIVHVGKTIHRLVTG [Pis-F2A] 16

Note down MIC recorded for FFHHIKRGIVHVGKTIHRLVTG [Pis-F6K] 16
